Overview of reported AIRE transcriptional activation functional score across a group of variants:
B1: library; numbered along this chain (parent)
chain: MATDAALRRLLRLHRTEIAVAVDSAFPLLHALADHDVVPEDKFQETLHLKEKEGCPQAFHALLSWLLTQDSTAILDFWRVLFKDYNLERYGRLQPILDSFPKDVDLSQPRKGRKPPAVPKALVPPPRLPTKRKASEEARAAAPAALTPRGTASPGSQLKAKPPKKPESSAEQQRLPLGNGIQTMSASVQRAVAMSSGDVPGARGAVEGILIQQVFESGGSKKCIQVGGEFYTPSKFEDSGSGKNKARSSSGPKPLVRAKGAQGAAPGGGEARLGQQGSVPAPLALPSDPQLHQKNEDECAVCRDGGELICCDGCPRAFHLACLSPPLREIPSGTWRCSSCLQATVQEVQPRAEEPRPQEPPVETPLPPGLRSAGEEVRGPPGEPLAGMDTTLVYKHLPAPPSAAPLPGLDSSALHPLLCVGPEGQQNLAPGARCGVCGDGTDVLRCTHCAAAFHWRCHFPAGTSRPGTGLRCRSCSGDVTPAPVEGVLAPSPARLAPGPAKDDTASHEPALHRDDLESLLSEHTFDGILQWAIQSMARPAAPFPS

# Variants of: B1
# PROTOCOL_NOTES: AIRE transcriptional activation functional score (insulin promoter-GFP; nonsense median 0, synonymous median 1) (normalised score); higher = higher AIRE activity (more reporter activation)
# CONDITION_DESCRIPTION: with insulin promoter-GFP reporter in HEK293
MEASUREMENT_NAME: AIRE transcriptional activation functional score

- S476P: 1.02
- P483N: 0.937
- I533M: 1.13
- A191Q: 0.489
- P357N: 1.32
- T151R: 0.807
- E329N: 1.33
- F82H: 0.0485
- D514F: 0.299
- L49Q: -0.302
- A540P: 1.07
- C472H: -0.28
- F26A: -0.171
- T447I: 1.4
- M184P: 0.519
- Q212H: 1.68
- L406D: 0.772
- F59C: -0.268
- A386V: 0.968
- P166C: 1.43
- P39F: 1.34
